Reported values of IC50 for individual entries
SYSTEM NAME: M2/M1 (hRRM2 and hRRM1 reconstituted RNR) (Homo sapiens, UniProt P31350)
Construct: 6xHis; made in house
Sequence (P31350 1-389): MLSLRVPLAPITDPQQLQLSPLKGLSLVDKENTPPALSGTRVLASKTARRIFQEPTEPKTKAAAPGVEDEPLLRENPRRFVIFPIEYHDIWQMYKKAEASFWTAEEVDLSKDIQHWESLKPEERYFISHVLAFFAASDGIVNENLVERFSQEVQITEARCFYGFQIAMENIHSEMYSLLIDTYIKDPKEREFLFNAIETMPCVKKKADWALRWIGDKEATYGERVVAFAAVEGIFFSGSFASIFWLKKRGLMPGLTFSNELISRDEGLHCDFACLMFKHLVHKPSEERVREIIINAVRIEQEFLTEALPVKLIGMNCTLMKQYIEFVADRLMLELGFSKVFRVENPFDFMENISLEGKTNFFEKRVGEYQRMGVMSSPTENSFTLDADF
ASSAY NOTES: In vitro RNR activity assay with reconstituted hRRM2/hRRM1 ([3H]CDP reduction)
Format: biochemical
CONDITION CONTEXT: compound in 1% DMSO; read-out: In vitro RR activity (IC50 ± sd) M2/M1

- COMPOUND: "NC(=O)NO [HU, Hydroxyurea]"
  IC50: "148 µM"

# return IC50 for O=C(NO)NN=Cc1ccc(O)c(O)c1O , test system: M2/M1 (hRRM2 and hRRM1 reconstituted RNR) (Homo sapiens, UniProt P31350) 11.5 µM

* * *

SYSTEM NAME: M2/M1 (hRRM2 and hRRM1 reconstituted RNR) (Homo sapiens, UniProt P31350)
Construct: 6xHis; made in house
ASSAY NOTES: In vitro RNR activity assay with reconstituted hRRM2/hRRM1 ([3H]CDP reduction)
Assay type: biochemical
CONDITION CONTEXT: compound in dH2O + FeCl3; read-out: In vitro RR activity (IC50 ± sd) M2/M1
QUANTITY MEASURED: IC50
Just the number plus its unit, please.

# return IC50 for NC(=O)NO [HU, Hydroxyurea] , test system: M2/M1 (hRRM2 and hRRM1 reconstituted RNR) (Homo sapiens, UniProt P31350) 556 µM

* * *

SYSTEM NAME: p53R2/M1 (p53R2 and hRRM1 reconstituted RNR) (Homo sapiens, UniProt Q7LG56)
Construct: 6xHis; made in house
Sequence (Q7LG56 whole entry): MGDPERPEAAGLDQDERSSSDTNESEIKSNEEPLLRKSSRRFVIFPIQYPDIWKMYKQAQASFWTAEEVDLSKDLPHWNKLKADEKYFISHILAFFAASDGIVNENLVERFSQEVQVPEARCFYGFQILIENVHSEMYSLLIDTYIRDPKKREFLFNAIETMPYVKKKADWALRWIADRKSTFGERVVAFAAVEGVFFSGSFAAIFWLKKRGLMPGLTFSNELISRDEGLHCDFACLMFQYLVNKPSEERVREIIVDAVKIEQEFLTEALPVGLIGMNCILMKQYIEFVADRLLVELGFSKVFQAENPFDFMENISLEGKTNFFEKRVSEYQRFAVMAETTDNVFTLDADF
ASSAY NOTES: In vitro RNR activity assay with reconstituted p53R2/hRRM1 ([3H]CDP reduction)
Type: biochemical
CONDITION CONTEXT: compound in 1% DMSO; read-out: In vitro RR activity (IC50 ± sd) p53R2/M1
Reported values of pIC50 for individual entries
// scale note: pIC50 = -log10(conc_M); give the bare number

- COMPOUND: "NC(=O)NO [HU, Hydroxyurea]"
  pIC50: 3.80

# return pIC50 for O=C(NO)NN=Cc1ccc(O)c(O)c1O , test system: p53R2/M1 (p53R2 and hRRM1 reconstituted RNR) (Homo sapiens, UniProt Q7LG56) 4.87
